biological target: Protein kinase C delta type (Homo sapiens, UniProt Q05655); assay: Inhibition of PKCdelta by SPA
value kind: IC50

Record excerpt, results attached:
CN(C)CCCn1cc(C2=C(c3c[nH]c4ccccc34)C(=O)NC2=O)c2ccccc21 [GF-109203] | 0.0087 µM
CN(C)CCCn1cc(C2=C(c3csc4ccccc34)C(=O)NC2=O)c2ccccc21 | 0.183 µM
O=C1NC(=O)C(c2c[nH]c3ccccc23)=C1c1nc(N2CCOCC2)nc2ccccc12 | 0.794 µM

// IC50 value for CN(C)CCCn1cc(C2=C(c3n[nH]c4ccccc34)C(=O)NC2=O)c2ccccc21 : > 0.315 µM

// IC50 value for CN(C)CCOc1cccc(C2=C(c3c[nH]c4ccccc34)C(=O)NC2=O)c1 : 0.047 µM

* * *

target: UniProtKB Q13464; assay: Inhibition of human recombinant ROCK1
value kind: IC50

// IC50 value for CN1CCN(c2nc(C3=C(c4c[nH]c5ccccc45)C(=O)NC3=O)c3ccccc3n2)CC1 : > 10 µM

* * *

target: Mast/stem cell growth factor receptor Kit (Homo sapiens, UniProt P10721); assay: Inhibition of human recombinant Kit
value kind: IC50

// IC50 value for CN1CCN(c2nc(C3=C(c4c[nH]c5ccccc45)C(=O)NC3=O)c3ccccc3n2)CC1 : > 10 µM

* * *

biological target: Protein kinase C eta type (Homo sapiens, UniProt P24723)
Sequence (P24723 whole entry): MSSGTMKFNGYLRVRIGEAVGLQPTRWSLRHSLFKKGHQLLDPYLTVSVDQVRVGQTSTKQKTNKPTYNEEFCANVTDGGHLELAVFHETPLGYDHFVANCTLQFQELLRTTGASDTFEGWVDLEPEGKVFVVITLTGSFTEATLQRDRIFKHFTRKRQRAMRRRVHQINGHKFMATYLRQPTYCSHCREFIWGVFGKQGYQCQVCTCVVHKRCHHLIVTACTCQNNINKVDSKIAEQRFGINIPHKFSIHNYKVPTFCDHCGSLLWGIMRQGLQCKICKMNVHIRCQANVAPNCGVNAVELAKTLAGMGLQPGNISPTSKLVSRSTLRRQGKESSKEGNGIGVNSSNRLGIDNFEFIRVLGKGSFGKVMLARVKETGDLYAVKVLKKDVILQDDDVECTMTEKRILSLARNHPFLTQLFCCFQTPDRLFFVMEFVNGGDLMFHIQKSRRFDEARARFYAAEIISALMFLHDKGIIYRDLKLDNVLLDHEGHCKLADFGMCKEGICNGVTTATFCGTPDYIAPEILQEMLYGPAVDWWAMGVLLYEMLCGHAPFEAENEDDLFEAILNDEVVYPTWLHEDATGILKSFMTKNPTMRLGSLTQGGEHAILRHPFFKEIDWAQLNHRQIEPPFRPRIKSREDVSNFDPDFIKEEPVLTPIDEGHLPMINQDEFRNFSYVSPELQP
In plain terms, low IC50, meaning strictly below 40 nM, gives true (1), and everything else gives false (0).

Solved cases (4 shown):
CN(C)CCCn1cc(C2=C(c3n[nH]c4ccccc34)C(=O)NC2=O)c2ccccc21 | false (0)
CN1CCN(c2cccc(C3=C(c4c[nH]c5ccccc45)C(=O)NC3=O)c2)CC1 | true (1)
CN(C)CCOc1cccc(C2=C(c3c[nH]c4ccccc34)C(=O)NC2=O)c1 | false (0)
CN1CCN(c2nc(C3=C(c4c[nH]c5ccccc45)C(=O)NC3=O)c3ccccc3n2)CC1 | true (1)

Task: For this molecule, is IC50 lower than 40 nM? CN(C)CCCn1cc(C2=C(c3cccc4ccccc34)C(=O)NC2=O)c2ccccc21
Result: false (0)

Task: For this molecule, is IC50 lower than 40 nM? O=C1NC(=O)C(c2c[nH]c3ccccc23)=C1c1nc(N2CCOCC2)nc2ccccc12
Result: false (0)

Task: For this molecule, is IC50 lower than 40 nM? CN(C)CCCn1cc(C2=C(c3c[nH]c4ccccc34)C(=O)NC2=O)c2ccccc21
Result: true (1)

Task: For this molecule, is IC50 lower than 40 nM? CN(C)CCOc1cc(C2=C(c3c[nH]c4ccccc34)C(=O)NC2=O)c2ccccc2c1
Result: true (1)

Task: For this molecule, is IC50 lower than 40 nM? CN(C)CCCn1cc(C2=C(c3csc4ccccc34)C(=O)NC2=O)c2ccccc21
Result: false (0)

* * *

target: Mitogen-activated protein kinase 8 (Homo sapiens); test: Inhibition of human recombinant JNK1
Sequence (P45983 whole entry): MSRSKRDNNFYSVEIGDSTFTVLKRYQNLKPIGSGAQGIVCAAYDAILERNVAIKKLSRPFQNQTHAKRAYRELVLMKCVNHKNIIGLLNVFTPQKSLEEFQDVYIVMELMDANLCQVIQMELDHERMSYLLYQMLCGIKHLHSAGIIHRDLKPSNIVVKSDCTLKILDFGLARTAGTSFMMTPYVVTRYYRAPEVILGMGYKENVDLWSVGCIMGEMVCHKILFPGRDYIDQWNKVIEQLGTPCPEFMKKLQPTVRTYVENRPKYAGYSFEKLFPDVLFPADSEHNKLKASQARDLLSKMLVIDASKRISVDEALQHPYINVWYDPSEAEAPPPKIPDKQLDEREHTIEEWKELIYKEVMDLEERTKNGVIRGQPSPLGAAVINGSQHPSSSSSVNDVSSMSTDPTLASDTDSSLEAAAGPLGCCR
pIC50: −log10 of the molar value.
value kind: pIC50

// pIC50 value for CN1CCN(c2nc(C3=C(c4c[nH]c5ccccc45)C(=O)NC3=O)c3ccccc3n2)CC1 [SOTRASTAURIN] : < 5.00

* * *

experiment: cells; settings: Homo sapiens, Jurkat
value kind: IC50

Record excerpt, results attached:
CN1CCN(c2cc(C3=C(c4c[nH]c5ccccc45)C(=O)NC3=O)c3ccccc3c2)CC1 | 0.05 µM
CN1CCN(c2nc(C3=C(c4c[nH]c5ccccc45)C(=O)NC3=O)c3ccccc3n2)CC1 | 0.054 µM
CN(C)CCOc1cc(C2=C(c3c[nH]c4ccccc34)C(=O)NC2=O)c2ccccc2c1 | 0.069 µM
O=C1NC(=O)C(c2c[nH]c3ccccc23)=C1c1nc(N2CCOCC2)nc2ccccc12 | > 3.7 µM
CN(C)CCOc1cccc(C2=C(c3c[nH]c4ccccc34)C(=O)NC2=O)c1 | 0.668 µM

// IC50 value for CN1CCN(c2cccc(C3=C(c4c[nH]c5ccccc45)C(=O)NC3=O)c2)CC1 : 0.277 µM

* * *

assay: Dissociation constant, pKa of the compound; format: physicochemical
value kind: pKa

CN1CCN(c2nc(C3=C(c4c[nH]c5ccccc45)C(=O)NC3=O)c3ccccc3n2)CC1 | 7.4

// pKa value for CN1CCN(c2cccc(C3=C(c4c[nH]c5ccccc45)C(=O)NC3=O)c2)CC1 : 7.5

* * *

molecular target: Tyrosine-protein kinase JAK2 (Homo sapiens); assay: Inhibition of human recombinant JAK2
value kind: IC50

I looked up CN1CCN(c2nc(C3=C(c4c[nH]c5ccccc45)C(=O)NC3=O)c3ccccc3n2)CC1 and its IC50 for Tyrosine-protein kinase JAK2 (Homo sapiens) was > 10 µM

* * *

target: UniProtKB P08069; test: Inhibition of human recombinant IGF1R
value kind: IC50

// IC50 value for CN1CCN(c2nc(C3=C(c4c[nH]c5ccccc45)C(=O)NC3=O)c3ccccc3n2)CC1 : > 10 µM

* * *

target: Tyrosine-protein kinase ZAP-70 (Homo sapiens); assay: Inhibition of human recombinant ZAP70
value kind: IC50

// IC50 value for CN1CCN(c2nc(C3=C(c4c[nH]c5ccccc45)C(=O)NC3=O)c3ccccc3n2)CC1 [SOTRASTAURIN] : > 10 µM

* * *

target: Phosphatidylinositol 4,5-bisphosphate 3-kinase catalytic subunit beta isoform (Homo sapiens); test: Inhibition of human recombinant PI3Kbeta
value kind: IC50

// IC50 value for CN1CCN(c2nc(C3=C(c4c[nH]c5ccccc45)C(=O)NC3=O)c3ccccc3n2)CC1 : > 10 µM

* * *

biological target: Serine/threonine-protein kinase PAK 2 (Homo sapiens, UniProt Q13177); test: Inhibition of human recombinant PAK2
Sequence (Q13177 whole entry): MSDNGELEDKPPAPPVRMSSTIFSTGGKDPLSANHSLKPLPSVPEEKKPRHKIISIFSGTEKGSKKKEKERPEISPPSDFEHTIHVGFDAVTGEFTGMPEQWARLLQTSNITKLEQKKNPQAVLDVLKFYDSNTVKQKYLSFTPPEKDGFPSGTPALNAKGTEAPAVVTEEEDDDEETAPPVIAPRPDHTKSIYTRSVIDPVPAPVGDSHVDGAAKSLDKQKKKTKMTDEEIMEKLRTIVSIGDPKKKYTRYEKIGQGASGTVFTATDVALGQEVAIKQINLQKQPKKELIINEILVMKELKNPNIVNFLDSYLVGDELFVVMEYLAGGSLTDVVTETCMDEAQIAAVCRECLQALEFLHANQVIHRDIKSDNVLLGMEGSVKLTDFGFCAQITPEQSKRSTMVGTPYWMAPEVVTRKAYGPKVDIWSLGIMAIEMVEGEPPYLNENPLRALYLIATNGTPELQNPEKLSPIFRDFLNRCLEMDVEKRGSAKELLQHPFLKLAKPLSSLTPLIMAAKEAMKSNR
pIC50: −log10 of the molar value.
value kind: pIC50

I looked up CN1CCN(c2nc(C3=C(c4c[nH]c5ccccc45)C(=O)NC3=O)c3ccccc3n2)CC1 [SOTRASTAURIN] and its pIC50 for Serine/threonine-protein kinase PAK 2 (Homo sapiens, UniProt Q13177) was < 5.00

* * *

assay: Volume of distribution at steady state in OFA rat at 5 mg/kg, iv; type: ADME, organism-based; design: dose 5 mg/kg, route intravenous; settings: in vivo, read-out: Vdss
value kind: Vd (L/kg)
Write the value in L/kg as a bare number.

CN1CCN(c2nc(C3=C(c4c[nH]c5ccccc45)C(=O)NC3=O)c3ccccc3n2)CC1 | 6.5

Now turn to the next compound.
// Vd value for CN(C)CCOc1cc(C2=C(c3c[nH]c4ccccc34)C(=O)NC2=O)c2ccccc2c1 : 48.2

* * *

target: Glycogen synthase kinase-3 beta (Homo sapiens); experiment: Inhibition of human recombinant GSK3-beta
value kind: pIC50
When answering, recall that pIC50 equals minus log10 of the concentration in mol/L, and write that number alone.

// pIC50 value for CN1CCN(c2nc(C3=C(c4c[nH]c5ccccc45)C(=O)NC3=O)c3ccccc3n2)CC1 [SOTRASTAURIN] : 6.06

* * *

# maps each entry to its bioavailability
experiment: Oral bioavailability in OFA rat at 20 mg/kg, po; format: ADME, organism-based; conditions: in vivo
Write the value in % as a bare number.

CN1CCN(c2nc(C3=C(c4c[nH]c5ccccc45)C(=O)NC3=O)c3ccccc3n2)CC1 [SOTRASTAURIN] | 34

Now turn to the next compound.
// bioavailability value for CN(C)CCOc1cc(C2=C(c3c[nH]c4ccccc34)C(=O)NC2=O)c2ccccc2c1 : 1

* * *

target: Focal adhesion kinase 1 (Homo sapiens, UniProt Q05397); test: Inhibition of human recombinant FAK
value kind: pIC50
When answering, recall that pIC50 equals minus log10 of the concentration in mol/L, and write that number alone.

// pIC50 value for CN1CCN(c2nc(C3=C(c4c[nH]c5ccccc45)C(=O)NC3=O)c3ccccc3n2)CC1 : 5.08

* * *

# Protein kinase C beta type (Homo sapiens, UniProt P05771): pIC50 values follow
# Sequence (P05771 whole entry): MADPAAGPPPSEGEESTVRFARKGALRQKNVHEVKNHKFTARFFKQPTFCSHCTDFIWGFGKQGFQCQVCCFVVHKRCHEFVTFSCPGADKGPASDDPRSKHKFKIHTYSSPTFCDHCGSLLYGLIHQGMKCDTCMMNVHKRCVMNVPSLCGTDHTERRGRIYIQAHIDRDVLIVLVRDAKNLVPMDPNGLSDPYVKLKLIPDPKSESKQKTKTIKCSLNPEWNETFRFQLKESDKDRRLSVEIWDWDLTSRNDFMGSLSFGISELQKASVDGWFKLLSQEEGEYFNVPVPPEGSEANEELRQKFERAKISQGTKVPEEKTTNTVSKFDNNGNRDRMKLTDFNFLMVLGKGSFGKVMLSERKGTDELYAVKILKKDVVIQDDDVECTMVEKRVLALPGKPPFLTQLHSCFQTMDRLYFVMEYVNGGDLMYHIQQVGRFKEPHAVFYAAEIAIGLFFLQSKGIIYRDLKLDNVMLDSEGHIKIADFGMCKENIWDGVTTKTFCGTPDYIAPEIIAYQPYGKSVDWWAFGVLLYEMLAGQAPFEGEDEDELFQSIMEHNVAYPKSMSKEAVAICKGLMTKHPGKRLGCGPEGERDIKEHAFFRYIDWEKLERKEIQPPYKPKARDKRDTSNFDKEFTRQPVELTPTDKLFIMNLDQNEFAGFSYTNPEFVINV
When answering, recall that pIC50 equals minus log10 of the concentration in mol/L, and write that number alone.

CN(C)CCOc1cccc(C2=C(c3c[nH]c4ccccc34)C(=O)NC2=O)c1 | 7.24
CN(C)CCCn1cc(C2=C(c3cccc4ccccc34)C(=O)NC2=O)c2ccccc21 | 7.22
CN(C)CCOc1cc(C2=C(c3c[nH]c4ccccc34)C(=O)NC2=O)c2ccccc2c1 | 8.68

Now turn to the next molecule.
I looked up CN(C)CCCn1cc(C2=C(c3csc4ccccc34)C(=O)NC2=O)c2ccccc21 and its pIC50 for Protein kinase C beta type (Homo sapiens, UniProt P05771) was 7.33

* * *

target: UniProt O75116; experiment: Inhibition of human recombinant ROCK2
Sequence (O75116 whole entry): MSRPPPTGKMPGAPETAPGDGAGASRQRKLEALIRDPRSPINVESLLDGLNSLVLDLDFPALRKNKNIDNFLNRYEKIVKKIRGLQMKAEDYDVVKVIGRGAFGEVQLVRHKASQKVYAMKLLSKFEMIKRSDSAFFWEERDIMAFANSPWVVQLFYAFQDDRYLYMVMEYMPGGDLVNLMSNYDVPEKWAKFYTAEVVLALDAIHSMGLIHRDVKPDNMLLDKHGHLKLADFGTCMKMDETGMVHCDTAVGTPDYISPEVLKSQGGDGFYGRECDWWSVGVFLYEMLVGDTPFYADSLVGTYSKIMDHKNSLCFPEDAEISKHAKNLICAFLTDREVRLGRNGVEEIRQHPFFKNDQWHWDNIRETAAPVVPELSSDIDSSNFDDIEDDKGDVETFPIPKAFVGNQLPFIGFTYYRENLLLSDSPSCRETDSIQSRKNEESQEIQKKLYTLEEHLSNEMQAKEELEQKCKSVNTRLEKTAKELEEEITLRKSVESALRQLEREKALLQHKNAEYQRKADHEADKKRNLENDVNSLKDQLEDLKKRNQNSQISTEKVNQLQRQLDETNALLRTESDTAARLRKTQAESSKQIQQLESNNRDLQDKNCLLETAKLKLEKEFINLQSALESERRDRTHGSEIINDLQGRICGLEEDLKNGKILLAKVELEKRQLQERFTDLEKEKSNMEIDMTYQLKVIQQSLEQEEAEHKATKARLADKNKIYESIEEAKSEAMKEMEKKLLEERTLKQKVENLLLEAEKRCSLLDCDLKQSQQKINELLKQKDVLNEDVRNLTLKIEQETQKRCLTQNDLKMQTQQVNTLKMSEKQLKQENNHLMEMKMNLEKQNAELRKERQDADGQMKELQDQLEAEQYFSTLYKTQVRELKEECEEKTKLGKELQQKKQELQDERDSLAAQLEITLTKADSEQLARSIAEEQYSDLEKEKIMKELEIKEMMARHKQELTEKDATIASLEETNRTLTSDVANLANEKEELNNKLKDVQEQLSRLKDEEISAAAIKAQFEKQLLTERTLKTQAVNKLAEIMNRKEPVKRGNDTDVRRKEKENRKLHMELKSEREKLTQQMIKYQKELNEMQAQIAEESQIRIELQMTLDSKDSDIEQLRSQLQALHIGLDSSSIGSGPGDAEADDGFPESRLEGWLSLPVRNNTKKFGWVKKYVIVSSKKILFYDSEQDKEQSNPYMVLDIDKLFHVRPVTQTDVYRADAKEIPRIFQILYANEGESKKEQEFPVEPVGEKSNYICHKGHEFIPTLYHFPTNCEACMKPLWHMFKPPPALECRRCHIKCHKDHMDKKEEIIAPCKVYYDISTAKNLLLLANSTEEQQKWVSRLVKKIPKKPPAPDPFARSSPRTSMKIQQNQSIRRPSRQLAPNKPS
pIC50: −log10 of the molar value.
value kind: pIC50

// pIC50 value for CN1CCN(c2nc(C3=C(c4c[nH]c5ccccc45)C(=O)NC3=O)c3ccccc3n2)CC1 : < 5.00

* * *

target: Receptor tyrosine-protein kinase erbB-2 (Homo sapiens); assay: Inhibition of human recombinant HER2
Sequence (P04626 whole entry): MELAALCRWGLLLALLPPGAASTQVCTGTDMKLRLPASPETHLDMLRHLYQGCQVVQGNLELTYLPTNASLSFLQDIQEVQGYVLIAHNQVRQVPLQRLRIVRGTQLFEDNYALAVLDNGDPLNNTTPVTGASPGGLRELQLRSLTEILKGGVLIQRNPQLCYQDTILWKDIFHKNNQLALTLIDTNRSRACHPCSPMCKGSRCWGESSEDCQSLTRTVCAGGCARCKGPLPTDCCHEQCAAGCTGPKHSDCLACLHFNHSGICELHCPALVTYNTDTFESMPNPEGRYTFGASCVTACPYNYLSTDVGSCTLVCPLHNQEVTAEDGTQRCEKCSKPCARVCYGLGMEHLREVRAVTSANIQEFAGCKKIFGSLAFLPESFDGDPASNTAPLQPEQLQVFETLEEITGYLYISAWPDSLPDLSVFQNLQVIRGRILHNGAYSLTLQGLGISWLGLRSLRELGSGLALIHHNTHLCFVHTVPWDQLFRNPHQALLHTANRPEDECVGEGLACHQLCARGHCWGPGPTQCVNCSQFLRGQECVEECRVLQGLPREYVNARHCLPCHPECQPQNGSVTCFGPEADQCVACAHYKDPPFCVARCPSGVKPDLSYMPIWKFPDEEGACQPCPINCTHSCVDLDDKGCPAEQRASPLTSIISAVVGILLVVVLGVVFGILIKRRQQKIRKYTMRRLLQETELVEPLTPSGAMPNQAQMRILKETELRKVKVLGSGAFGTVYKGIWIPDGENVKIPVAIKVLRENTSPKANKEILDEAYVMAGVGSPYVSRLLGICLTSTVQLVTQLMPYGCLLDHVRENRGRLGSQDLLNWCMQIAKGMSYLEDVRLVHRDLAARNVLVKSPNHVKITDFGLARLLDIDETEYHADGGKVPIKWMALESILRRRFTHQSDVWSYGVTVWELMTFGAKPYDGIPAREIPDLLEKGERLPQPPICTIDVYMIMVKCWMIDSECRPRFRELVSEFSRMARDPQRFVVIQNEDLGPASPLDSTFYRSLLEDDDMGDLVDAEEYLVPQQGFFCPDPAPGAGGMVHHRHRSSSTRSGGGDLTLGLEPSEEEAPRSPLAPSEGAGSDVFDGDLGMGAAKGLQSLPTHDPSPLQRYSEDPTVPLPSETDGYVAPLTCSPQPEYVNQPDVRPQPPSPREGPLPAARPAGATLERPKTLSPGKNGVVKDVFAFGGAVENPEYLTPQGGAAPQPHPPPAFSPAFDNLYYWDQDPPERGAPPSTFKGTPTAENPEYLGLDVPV
value kind: IC50

// IC50 value for CN1CCN(c2nc(C3=C(c4c[nH]c5ccccc45)C(=O)NC3=O)c3ccccc3n2)CC1 : > 10 µM
